Below is a list of entries, each paired with its recorded logD value.
assay-name: Lipophilicity, logD of the compound by shake flask assay
Format: physicochemical
settings: octanol/water
Keep it simple and answer with nothing but the number.

Here is how some molecules turned out for logD.
**Query** Recorded logD of N#Cc1cnc2ccc(=O)n(CCN[C@H]3CC[C@H]4[C@H](C3)OC(=O)N4c3ccc4c(n3)NC(=O)CO4)c2c1 , please.
**Result** 0.79

**Query** Please look up its logD: COc1ccc2ccc(=O)n(CCN[C@H]3CC[C@H]4[C@@H](C3)OC(=O)N4c3ccc4c(n3)NC(=O)CO4)c2n1
**Result** 2

**Query** Sample COc1ccc2ncc(=O)n(CCN[C@H]3CC[C@H]4[C@H](C3)OC(=O)N4c3ccc4c(n3)NC(=O)CO4)c2n1 — what was its logD?
**Result** 1.6

**Query** What value of logD has been reported for the following molecule? COc1cc2c(ccc(=O)n2CCN[C@H]2CC[C@H]3[C@H](C2)OC(=O)N3c2ccc3c(n2)NC(=O)CO3)cn1
**Result** 1.69

**Query** Using the record for COc1ccc2ccc(=O)n(CCN[C@H]3CC[C@H]4[C@H](C3)OC(=O)N4c3ccc4c(n3)NC(=O)CS4)c2n1 , report its logD.
**Result** 2.58

**Query** # query: logD of entry COc1cnc2ccc(=O)n(CCCN[C@H]3CC[C@H]4[C@H](C3)OC(=O)N4c3ccc4c(n3)NC(=O)CO4)c2c1
**Result** 0.94

Others:
**Query** Which value of logD has been reported for COc1cnc2ccc(=O)n(CCN[C@H]3CC[C@H]4[C@H](C3)OC(=O)N4c3ccc4c(n3)NC(=O)CO4)c2n1 in the records?
**Result** 1.37

====

Test system: Klebsiella pneumoniae
assay-name: Antibacterial activity against Klebsiella pneumoniae ATCC 700603 assessed as bacterial growth inhibition by CLSI protocol based assay
Assay type: functional
readout-kind: MIC (mg/L)
Number only, in mg/L; omit the unit.

Sample answers from the record:
**Query** Which MIC value is on record for N#Cc1ccc2ccc(=O)n(CCCN[C@H]3CC[C@H]4[C@H](C3)OC(=O)N4c3ccc4c(n3)NC(=O)CO4)c2c1 ?
**Result** 2

**Query** State the recorded MIC for this entry: COc1ccc2ncc(=O)n(CCN[C@H]3CC[C@H]4[C@H](C3)OC(=O)N4c3ccc4c(n3)NC(=O)CO4)c2n1
**Result** 4

New cases:
**Query** Look up MIC: O=C1COc2ccc(N3C(=O)O[C@H]4C[C@@H](NCCn5c(=O)cnc6ccc(F)cc65)CC[C@@H]43)nc2N1
**Result** 8

**Query** I'd like to know its MIC. The compound in question is N#Cc1cnc2ccc(=O)n(CCCN[C@H]3CC[C@H]4[C@H](C3)OC(=O)N4c3ccc4c(n3)NC(=O)CO4)c2c1
**Result** 8

====

target-or-test-system: Voltage-gated inwardly rectifying potassium channel KCNH2 (Homo sapiens)
Sequence (Q12809 whole entry): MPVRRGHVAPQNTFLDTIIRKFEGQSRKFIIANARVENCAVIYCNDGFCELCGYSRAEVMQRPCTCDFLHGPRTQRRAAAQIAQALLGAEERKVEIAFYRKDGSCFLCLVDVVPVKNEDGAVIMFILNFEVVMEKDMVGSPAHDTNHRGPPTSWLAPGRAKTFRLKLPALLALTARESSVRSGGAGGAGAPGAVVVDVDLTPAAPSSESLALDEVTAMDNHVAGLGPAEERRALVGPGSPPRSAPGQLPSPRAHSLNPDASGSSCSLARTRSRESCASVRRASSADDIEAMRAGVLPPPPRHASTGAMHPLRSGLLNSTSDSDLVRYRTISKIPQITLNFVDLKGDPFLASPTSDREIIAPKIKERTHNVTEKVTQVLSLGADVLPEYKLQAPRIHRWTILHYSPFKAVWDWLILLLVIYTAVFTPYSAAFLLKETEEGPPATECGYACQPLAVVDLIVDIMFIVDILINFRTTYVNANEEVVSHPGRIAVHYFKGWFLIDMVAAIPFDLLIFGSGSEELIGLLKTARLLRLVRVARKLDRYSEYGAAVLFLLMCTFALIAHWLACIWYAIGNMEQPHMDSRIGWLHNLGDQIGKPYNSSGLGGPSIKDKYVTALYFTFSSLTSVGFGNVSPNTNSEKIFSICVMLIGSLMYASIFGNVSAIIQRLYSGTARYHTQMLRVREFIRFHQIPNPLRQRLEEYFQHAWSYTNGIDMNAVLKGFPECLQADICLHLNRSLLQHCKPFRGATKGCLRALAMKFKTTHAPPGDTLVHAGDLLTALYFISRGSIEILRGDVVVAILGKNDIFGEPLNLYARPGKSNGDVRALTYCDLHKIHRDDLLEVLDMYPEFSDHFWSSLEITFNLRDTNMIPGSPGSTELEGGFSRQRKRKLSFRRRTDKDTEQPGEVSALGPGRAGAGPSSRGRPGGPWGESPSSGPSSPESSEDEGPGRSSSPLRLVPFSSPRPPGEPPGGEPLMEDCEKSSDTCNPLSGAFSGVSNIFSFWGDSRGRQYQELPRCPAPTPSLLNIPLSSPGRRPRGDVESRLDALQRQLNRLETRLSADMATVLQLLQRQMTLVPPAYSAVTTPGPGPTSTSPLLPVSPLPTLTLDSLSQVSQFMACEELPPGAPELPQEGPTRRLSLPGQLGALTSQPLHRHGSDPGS
pIC50: −log10 of the molar value.
Classify by measured pIC50: TRUE if it is equal to or exceeds 5, FALSE if it is smaller.

Reference set, count: 5
**Query** Has COc1ccc2ccc(=O)n(CCN[C@@H]3CC[C@@H]4[C@H](C3)OC(=O)N4c3ccc4c(n3)NC(=O)CO4)c2n1 a recorded pIC50 greater than or equal to 5?
**Result** TRUE

**Query** Exam item: decide whether the reported pIC50 for COc1cnc2ccc(=O)n(CCN[C@H]3CC[C@H]4[C@H](C3)OC(=O)N4c3ccc4c(n3)NC(=O)CO4)c2c1 is at least 5.
**Result** FALSE

**Query** Decide: pIC50 of N#Cc1cnc2ccc(=O)n(CCN[C@H]3CC[C@H]4[C@H](C3)OC(=O)N4c3ccc4c(n3)NC(=O)CS4)c2c1 >= 5?
**Result** FALSE

**Query** Is pIC50 at least 5? Consider N#Cc1ccc2ccc(=O)n(CCCN[C@H]3CC[C@H]4[C@H](C3)OC(=O)N4c3ccc4c(n3)NC(=O)CO4)c2c1
**Result** TRUE

**Query** Hi team, for COc1ccc2ccc(=O)n(CCN[C@H]3CC[C@H]4[C@H](C3)OC(=O)N4c3ccc4c(n3)NC(=O)CS4)c2n1 , is the recorded pIC50 at or above 5?
**Result** TRUE

Now for another entry.
**Query** API: above_or_equal(metric=pIC50, cutoff=5) for item COc1ccc2ccc(=O)n(CCN[C@H]3CC[C@H]4[C@H](C3)OC(=O)N4c3ccc4c(n3)NC(=O)CO4)c2n1
**Result** TRUE
